Numbers sourced from ChEMBL document CHEMBL1129233.

# measurement-target: Endothelin receptor type B (Homo sapiens, UniProt P24530)
# test-method-notes: Inhibitory concentration against Endothelin B receptor expressed in CHO-K1 cells
# Assay type: cell-based
pIC50: −log10 of the molar value.
endpoint-name: pIC50

a = COc1ccc(-c2c(C(=O)O)n(Cc3ccc4c(c3)OCO4)c3cc(OC)c(OC)cc23)cc1OC
b = COc1cc2c(-c3ccc4c(c3)OCO4)c(C(=O)O)n(Cc3ccc4c(c3)OCO4)c2cc1OCc1ccccc1
c = CCCOc1ccc2c(c1)c(-c1ccc3c(c1)OCO3)c(C(=O)O)n2-c1ccc2c(c1)OCO2
d = COc1ccc(Cn2c(C(=O)O)c(-c3ccc4c(c3)OCO4)c3cc(OCc4ccccc4)ccc32)cc1
Problem: Hello, I need these entries ordered by pIC50, highest reading first. Thanks! Please write the labels in the order that was asked for.
Result: b, a, d, c

====

# measurement-target: Endothelin-1 receptor (Homo sapiens, UniProt P25101)
# Sequence (P25101 whole entry): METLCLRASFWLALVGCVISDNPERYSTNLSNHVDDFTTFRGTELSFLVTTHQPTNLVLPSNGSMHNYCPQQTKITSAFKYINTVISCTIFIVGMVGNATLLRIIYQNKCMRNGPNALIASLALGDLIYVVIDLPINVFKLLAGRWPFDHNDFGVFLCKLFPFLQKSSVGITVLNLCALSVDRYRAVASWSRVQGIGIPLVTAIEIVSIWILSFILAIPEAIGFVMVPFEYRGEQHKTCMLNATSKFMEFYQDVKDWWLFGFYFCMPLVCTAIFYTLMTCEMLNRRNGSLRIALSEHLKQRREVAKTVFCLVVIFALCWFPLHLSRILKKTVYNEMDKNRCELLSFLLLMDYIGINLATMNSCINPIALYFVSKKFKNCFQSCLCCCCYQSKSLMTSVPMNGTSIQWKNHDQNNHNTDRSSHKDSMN
# test-method-notes: Inhibitory concentration to the endothelin A receptor expressed in LtK cells
# Format: cell-based
endpoint-name: IC50 (µM)

These recorded examples may help you get a feel for the data.
• O=C(O)c1c(-c2ccc3c(c2)OCO3)c2cc3c(cc2n1Cc1ccc2c(c1)OCO2)OCO3 = 0.24
• O=C(O)c1c(-c2ccc3c(c2)OCO3)c2ccccc2n1Cc1ccccc1 = 11

I = CCCOc1ccc2c(-c3ccc4c(c3)OCO4)c(C(=O)O)n(Cc3ccc4c(c3)OCO4)c2c1
II = COc1ccc2c(-c3ccc4c(c3)OCO4)c(C(=O)O)n(-c3ccccc3)c2c1
Problem: Lowest IC50? choose I or II // caller expects the label of the chosen entry
Result: I
(I: 0.047 µM, II: 7.4 µM)

====

# measurement-target: Endothelin-1 receptor (Oryctolagus cuniculus)
# test-method-notes: Compound was evaluated for binding affinity against rabbit Endothelin A receptor
endpoint-name: pIC50
Keep it numeric: pIC50 is minus log10 of the concentration in mol/L.

Problem: Output pIC50 of "CC(C)Oc1c(C(=O)O)sc2ccc(OCc3ccccc3)cc12"
Result: 5.22

====

# measurement-target: UniProtKB P24530
# Sequence (P24530 whole entry): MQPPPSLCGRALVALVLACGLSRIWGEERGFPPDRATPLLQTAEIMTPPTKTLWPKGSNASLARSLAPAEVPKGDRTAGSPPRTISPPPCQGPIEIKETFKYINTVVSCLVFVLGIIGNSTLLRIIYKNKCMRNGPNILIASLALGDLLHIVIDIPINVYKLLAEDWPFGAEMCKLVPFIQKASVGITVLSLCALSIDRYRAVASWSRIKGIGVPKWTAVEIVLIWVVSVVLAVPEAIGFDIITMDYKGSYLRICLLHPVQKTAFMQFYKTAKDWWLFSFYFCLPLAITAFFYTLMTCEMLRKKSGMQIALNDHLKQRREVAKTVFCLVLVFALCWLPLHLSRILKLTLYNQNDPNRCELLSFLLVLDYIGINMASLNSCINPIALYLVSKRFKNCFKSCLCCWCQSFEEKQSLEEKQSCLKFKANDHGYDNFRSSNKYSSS
# test-method-notes: Inhibitory concentration against Endothelin B receptor expressed in CHO-K1 cells
# Type: cell-based
endpoint-name: IC50

These recorded examples may help you get a feel for the data.
- COc1ccc(-c2c(C(=O)O)n(-c3ccc4c(c3)OCO4)c3ccc(OC)cc23)cc1: > 25 µM
- COc1ccc(-n2c(C(=O)O)c(-c3ccc4c(c3)OCO4)c3ccccc32)cc1: > 25 µM
- COc1ccc(-n2c(C(=O)O)c(-c3ccc4c(c3)OCO4)c3cc(OC)ccc32)cc1: > 25 µM

Problem: Output IC50 of "COc1ccc2c(c1)c(-c1ccc3c(c1)OCO3)c(C(=O)O)n2-c1ccccc1"
Result: > 25 µM

Problem: Output IC50 of "COc1cccc(-c2c(C(=O)O)n(-c3ccc4c(c3)OCO4)c3ccc(OC)cc23)c1"
Result: > 25 µM
